These data points were gathered from patent US8148391B2.

molecular target: baculovirus-expressed ALK (Homo sapiens, UniProt Q9UM73); construct: host or cells: baculovirus expression system; assay: ALK Kinase Assay (ELISA-type, time-resolved fluorescence); assay type: biochemical; conditions: 1 μM ATP (Km level), 30 ng/ml ALK, 37° C., 15 minutes; read-out: ALK Activity (ALK kinase inhibition, IC50 class)
Sequence (Q9UM73 19-1620): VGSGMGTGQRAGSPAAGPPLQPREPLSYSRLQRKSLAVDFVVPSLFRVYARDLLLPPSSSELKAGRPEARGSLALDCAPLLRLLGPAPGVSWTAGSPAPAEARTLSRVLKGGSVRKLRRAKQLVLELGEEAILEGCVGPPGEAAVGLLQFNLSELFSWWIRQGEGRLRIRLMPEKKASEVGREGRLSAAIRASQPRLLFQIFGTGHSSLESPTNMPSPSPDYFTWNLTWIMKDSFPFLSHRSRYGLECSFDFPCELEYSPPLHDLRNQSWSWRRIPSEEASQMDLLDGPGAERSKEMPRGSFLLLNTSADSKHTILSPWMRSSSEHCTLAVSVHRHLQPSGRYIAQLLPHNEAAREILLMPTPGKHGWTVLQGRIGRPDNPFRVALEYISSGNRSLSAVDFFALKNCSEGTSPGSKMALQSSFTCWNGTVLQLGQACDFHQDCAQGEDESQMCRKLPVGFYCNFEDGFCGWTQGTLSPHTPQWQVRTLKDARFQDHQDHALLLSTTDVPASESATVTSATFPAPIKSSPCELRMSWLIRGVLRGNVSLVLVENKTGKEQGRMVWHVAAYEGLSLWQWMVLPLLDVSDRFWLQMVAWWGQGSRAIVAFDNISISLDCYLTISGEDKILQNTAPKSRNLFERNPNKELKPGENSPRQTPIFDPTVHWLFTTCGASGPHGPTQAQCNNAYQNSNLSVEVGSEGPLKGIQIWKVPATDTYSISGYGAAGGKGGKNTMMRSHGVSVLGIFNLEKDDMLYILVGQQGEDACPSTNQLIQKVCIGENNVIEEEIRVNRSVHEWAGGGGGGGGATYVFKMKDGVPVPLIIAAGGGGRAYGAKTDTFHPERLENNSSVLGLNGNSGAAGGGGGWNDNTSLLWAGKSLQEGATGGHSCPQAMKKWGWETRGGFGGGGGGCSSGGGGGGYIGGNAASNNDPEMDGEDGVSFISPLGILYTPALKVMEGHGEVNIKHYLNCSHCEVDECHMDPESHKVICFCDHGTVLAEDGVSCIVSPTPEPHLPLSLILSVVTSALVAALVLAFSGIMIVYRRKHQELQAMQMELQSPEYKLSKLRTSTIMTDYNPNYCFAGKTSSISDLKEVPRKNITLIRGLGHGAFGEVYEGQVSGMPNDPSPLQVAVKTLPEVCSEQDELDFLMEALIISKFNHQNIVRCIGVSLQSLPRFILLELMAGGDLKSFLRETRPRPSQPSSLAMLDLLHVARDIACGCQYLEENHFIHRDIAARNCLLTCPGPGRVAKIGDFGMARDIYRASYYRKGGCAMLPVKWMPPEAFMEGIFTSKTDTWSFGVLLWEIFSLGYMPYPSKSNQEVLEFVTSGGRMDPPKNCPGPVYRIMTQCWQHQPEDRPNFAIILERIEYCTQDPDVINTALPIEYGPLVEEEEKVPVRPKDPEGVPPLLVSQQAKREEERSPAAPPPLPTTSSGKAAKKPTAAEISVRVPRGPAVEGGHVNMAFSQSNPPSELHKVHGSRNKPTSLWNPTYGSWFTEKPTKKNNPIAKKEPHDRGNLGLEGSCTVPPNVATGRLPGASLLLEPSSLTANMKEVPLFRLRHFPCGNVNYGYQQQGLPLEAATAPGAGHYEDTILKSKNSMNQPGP
This section presents molecules with their documented IC50 values.

Consider the reported IC50 for these molecules:
[
  {
    "Molecule": "CNC(=O)c1cccc(F)c1Nc1nc(Nc2ccc3c(c2)-n2cccc2C(=O)CO3)ncc1Cl [Example 1268]",
    "Attribute measured": "IC50",
    "Value reported": "0.1 to 1 µM"
  },
  {
    "Molecule": "COc1cc2c(cc1Nc1ncc(Cl)c(Nc3ccccc3-n3cccn3)n1)CCC(NCCO)CC2 (stereo not drawn) [Example 1091]",
    "Attribute measured": "IC50",
    "Value reported": "< 0.1 µM"
  },
  {
    "Molecule": "COCCN1CCc2ccc(Nc3ncc(Cl)c(Nc4ccccc4OCC#N)n3)cc2CC1 [Example 1240]",
    "Attribute measured": "IC50",
    "Value reported": "< 0.1 µM"
  },
  {
    "Molecule": "COc1cc2c(cc1Nc1ncc(Cl)c(N[C@@H]3CCCC[C@H]3NS(C)(=O)=O)n1)CCC(NCC(F)F)CC2 (single isomer, unassigned) [Example 1058]",
    "Attribute measured": "IC50",
    "Value reported": "< 0.1 µM"
  }
]

Lookup result for COCCN1CCc2ccc(Nc3ncc(Cl)c(N[C@@H]4CCC[C@H](NS(C)(=O)=O)C4)n3)cc2CC1 (relative stereo) [Example 1380] ; measured IC50: 1 to 10 µM

Lookup result for CC(C)S(=O)(=O)c1cccc(F)c1Nc1nc(Nc2ccc3c(c2)C(C)(C)CCC(=O)N3)ncc1Cl [Example 1254] ; measured IC50: < 0.1 µM

Lookup result for CCN1C(=O)C(N)CCc2c1ccc(Nc1ncc(Cl)c(Nc3ccccc3S(=O)(=O)C(C)C)n1)c2OC (stereo not drawn) [Example 1337] ; measured IC50: < 0.1 µM

Lookup result for COc1cc2c(cc1Nc1ncc(Cl)c(Nc3ccccc3S(=O)(=O)C(C)C)n1)CCC(NCC(F)F)CC2 (stereo not drawn) [Example 1056] ; measured IC50: < 0.1 µM

Lookup result for COc1c(Nc2ncc(Cl)c(Nc3ccccc3S(=O)(=O)N(C)C)n2)ccc2c1CC(N1CCOCC1)CCC2 (racemic) [Example 1210] ; measured IC50: < 0.1 µM

Lookup result for COc1cc2c(cc1Nc1ncc(Cl)c(Nc3ccccc3S(=O)(=O)N(C)C)n1)CCC(NCC(F)F)CC2 (stereo not drawn) [Example 1055] ; measured IC50: < 0.1 µM

Lookup result for COc1cc2c(cc1Nc1ncc(Cl)c(Nc3ccccc3S(=O)(=O)N3CCCC3)n1)CCN(CCS(C)(=O)=O)CC2 [Example 1178] ; measured IC50: < 0.1 µM

Lookup result for CCN1C(=O)[C@@H](N2CCOCC2)CCc2c1ccc(Nc1ncc(Cl)c(N[C@H]3[C@@H](C(N)=O)[C@@H]4C=C[C@H]3C4)n1)c2OC (single isomer, unassigned) [Example 1345] ; measured IC50: < 0.1 µM

Lookup result for COc1cc2c(cc1Nc1ncc(Cl)c(N[C@H]3[C@@H](C(N)=O)[C@@H]4C=C[C@H]3C4)n1)CCN(CCS(C)(=O)=O)CC2 [Example 1128] ; measured IC50: < 0.1 µM

Lookup result for C#CCNC(=O)c1cccc(F)c1Nc1nc(Nc2ccc3c(c2)OCCCN3C(=O)OC)ncc1Cl [Example 1430] ; measured IC50: 0.1 to 1 µM

Lookup result for CCCCNC(=O)c1ccccc1Nc1nc(Nc2ccc3c(c2)C(C)(C)CCC(=O)N3)ncc1Cl [Example 1027] ; measured IC50: < 0.1 µM

Lookup result for CCN1C(=O)C(NC(=O)C(F)(F)F)CCc2c1ccc(Nc1ncc(Cl)c(N[C@H]3[C@@H](C(N)=O)[C@@H]4C=C[C@H]3C4)n1)c2OC (stereo partly drawn) [Example 1330] ; measured IC50: < 0.1 µM

Lookup result for COCCN1CCc2ccc(Nc3ncc(Cl)c(Nc4c(C)cccc4OCC#N)n3)cc2CC1 [Example 1245] ; measured IC50: 0.1 to 1 µM

Lookup result for COCCN1CCc2ccc(Nc3ncc(Cl)c(N[C@@H]4CCC[C@@H](N(CC#N)S(C)(=O)=O)C4)n3)cc2CC1 (relative stereo) [Example 1382] ; measured IC50: 0.1 to 1 µM

Lookup result for CCN1C(=O)CCCc2cc(Nc3ncc(Cl)c(Nc4ccc(N(C)C)cc4OC)n3)c(OC)cc21 [Example 1340] ; measured IC50: < 0.1 µM

Lookup result for CCNC(=O)c1cccc(F)c1Nc1nc(Nc2cc3c(cc2OC)CCN(CC(=O)N(C)C)CC3)ncc1Cl [Example 1119] ; measured IC50: < 0.1 µM

Lookup result for CCN1C(=O)CCCc2c1ccc(Nc1ncc(Cl)c(Nc3ccc(N(C)C)cc3OC)n1)c2OC [Example 1339] ; measured IC50: 0.1 to 1 µM

Lookup result for CNC(=O)c1cccc(F)c1Nc1nc(Nc2ccc3c(c2)-n2ccnc2CCC3(C)C)ncc1Cl [Example 1270] ; measured IC50: 0.1 to 1 µM

Lookup result for COc1cc2c(cc1Nc1ncc(Cl)c(N[C@H]3[C@@H](C(N)=O)[C@@H]4C=C[C@H]3C4)n1)CCC(NCCO)CC2 (single isomer, unassigned) [Example 1096] ; measured IC50: < 0.1 µM

Lookup result for COc1cc2c(cc1Nc1ncc(Cl)c(Nc3ccccc3S(=O)(=O)N3CCC(O)C3)n1)CCNC(=O)C2 (stereo not drawn) [Example 1193] ; measured IC50: < 0.1 µM

Lookup result for CC(C)S(=O)(=O)c1ccccc1Nc1nc(Nc2ccc3c(c2)CCC(O)CC3)ncc1Cl (stereo not drawn) [Example 1037] ; measured IC50: < 0.1 µM

Lookup result for COc1cc2c(cc1Nc1ncc(Cl)c(N[C@@H]3CCCC[C@H]3NS(C)(=O)=O)n1)CCC(N1CCOCC1)CC2 (stereo partly drawn) [Example 1051] ; measured IC50: < 0.1 µM

Lookup result for COc1cc2c(cc1Nc1ncc(Cl)c(Nc3ccccc3S(=O)(=O)N(C)C)n1)CCN(Cc1ncco1)CC2 [Example 1170] ; measured IC50: < 0.1 µM

====

target: baculovirus-expressed ALK (Homo sapiens); construct: host or cells: baculovirus expression system; assay: ALK Kinase Assay (ELISA-type, time-resolved fluorescence); type: biochemical; conditions: ALK kinase inhibition, 1 μM ATP (Km level); read-out: ALK Activity
This section presents compounds with their documented IC50 values.

[
  {
    "Compound": "CCN1C2CCC1c1cc(Nc3ncc(Cl)c(Nc4ccccc4C(=O)NC)n3)ccc1C2 (racemic) [Example 101]",
    "Experimental system": "baculovirus-expressed ALK (Homo sapiens)",
    "IC50": "< 100 nM"
  }
]

Lookup result for CCN1CC2OC(C1)c1cc(Nc3ncc(Cl)c(Nc4ccccc4C(=O)NC)n3)ccc12 (stereo not shown) [Example 61] ; measured IC50: < 100 nM

Lookup result for CNS(=O)(=O)c1ccccc1Nc1nc(Nc2ccc3c(c2)C2CCC3CN(C(C)=O)C2)ncc1Cl (stereo not shown) [Example 289] ; measured IC50: < 100 nM

Lookup result for C#CCN1CC2OC(C1)c1cc(Nc3ncc(Cl)c(Nc4ccccc4C(=O)NC)n3)ccc12 (stereo not shown) [Example 63] ; measured IC50: 100 to 1000 nM

Lookup result for COCCN1CCc2cc(Nc3ncc(Cl)c(N[C@@H]4CCCC[C@H]4NS(C)(=O)=O)n3)c(OC)cc2CC1 [Example 111] ; measured IC50: < 100 nM

Lookup result for CCN1CCN(CC)c2cc(Nc3ncc(Cl)c(N[C@@H]4CCCC[C@H]4NS(C)(=O)=O)n3)c(Cl)cc2C1 [Example 427] ; measured IC50: < 100 nM

Lookup result for CCN1C(=O)CCCc2ccc(Nc3ncc(Cl)c(Nc4c(C)cccc4C(=O)NC)n3)cc21 [Example 360] ; measured IC50: 1000 to 10000 nM

====

target: baculovirus-expressed ALK (Homo sapiens); construct: host or cells: baculovirus expression system; experiment: ALK Kinase Assay (ELISA-type, time-resolved fluorescence); format: biochemical; conditions: 1 μM ATP (Km level); read-out: ALK Activity (ALK Kinase Inhibition, IC50)
Attribute measured: IC50

Consider the reported IC50 for these compounds:
[
  {
    "Compound": "CNC(=O)C1C2C=CC(C2)C1Nc1nc(Nc2ccc3c(c2)CCC(O)CC3)ncc1Cl (stereo not shown)",
    "IC50": "< 100 nM"
  },
  {
    "Compound": "COc1cc(N2CCOCC2)ccc1Nc1nc(Nc2ccc3c(c2)CCCC(=O)N3C(C)C)ncc1Cl",
    "IC50": "100 to 1000 nM"
  }
]

Lookup result for COCCN1CCc2cc(Nc3ncc(Cl)c(NC4C5C=CC(C5)C4c4nc5ccccc5[nH]4)n3)c(OC)cc2CC1 (stereo not shown) ; measured IC50: 1000 to 10000 nM

Lookup result for CNC(=O)[C@H]1[C@@H](Nc2nc(Nc3ccc4c(c3)CCN(CCOC)CC4)ncc2Cl)[C@@H]2C=C[C@H]1C2 (relative stereo) ; measured IC50: < 100 nM

Lookup result for `CCN(CCO)Cc1cc(Nc2nc(Nc3cc4c(cc3OC)CCN(CC(=O)N(C)C)CC4)ncc2Cl)ccc1F` ; measured IC50: < 100 nM

Lookup result for `CCN1CCN(CC)c2cc(Nc3ncc(Cl)c(N[C@H]4[C@@H](C(N)=O)[C@@H]5C=C[C@H]4C5)n3)ccc2C1` ; measured IC50: < 100 nM

Lookup result for COc1c(Nc2ncc(Cl)c(Nc3ccccc3S(=O)(=O)C(C)C)n2)ccc2c1CCCC(NCCO)C2 (stereo not shown) ; measured IC50: < 100 nM
